system under test: 17β-HSD1 (Homo sapiens (Human))
Sequence (P14061 whole entry): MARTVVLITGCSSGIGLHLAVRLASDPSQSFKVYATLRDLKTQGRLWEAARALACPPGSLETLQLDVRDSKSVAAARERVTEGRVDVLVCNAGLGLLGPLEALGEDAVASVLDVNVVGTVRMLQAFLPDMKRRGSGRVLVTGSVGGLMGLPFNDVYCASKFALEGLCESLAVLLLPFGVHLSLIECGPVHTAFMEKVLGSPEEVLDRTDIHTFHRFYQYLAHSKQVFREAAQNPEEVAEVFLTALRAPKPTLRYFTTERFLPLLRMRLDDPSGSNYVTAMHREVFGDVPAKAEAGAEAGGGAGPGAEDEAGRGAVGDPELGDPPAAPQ
assay method text: 17β-HSD1 test assay (recombinant protein from Sf9 insect cells, 3H-estrone/NADPH)
Assay type: biochemical
measurement context: read-out: HSD 1 μM (% inhibition of HSD1); inhibitor 1 μM
Method: Recombinant protein obtained from Sf9 insect cells (0.1 μg/ml) is incubated with 20 mM KH2PO4, pH 7.4, 30 nM ^3H-estrone and 1 mM NADPH for 30 min at RT in the presence of the potential inhibitor in a concentration of 1 μM or 100 nM. The stock solutions of the compounds are prepared in DMSO (dimethylsulfoxide) so that the final concentration of DMSO in the sample is 1%. […] The radioactivity was measured by means of a Packard Flow Scintillation Analyzer. […]

| smiles repr | inhibition at 1 µM |
| --- | --- |
| O=S(=O)(Nc1cccc(-c2c(O)ccc3cc(-c4cccc(O)c4)ccc23)c1)c1ccc(Cl)s1 | 78% |
| O=C(O)CCC(=O)Nc1ccc(-c2c(O)ccc3cc(-c4cccc(O)c4)ccc23)cc1 | 62.3% |
| O=C(Nc1ncccn1)c1c(O)ccc2cc(-c3cccc(O)c3)ccc12 | 40% |
| O=C(Nc1ccccc1)c1c(O)ccc2cc(-c3cccc(O)c3)ccc12 | 80.2% |
| O=S(=O)(Nc1cccc(-c2c(O)ccc3cc(-c4cccc(O)c4)ccc23)c1)c1cc(Br)c(Br)s1 | 77.7% |
